The entries below are paired with their reported half-life at 0.5 mM.
- ASSAY_COMMENT: Kinetic stability: exchange reaction with Zn2+ in acetate buffer, monitored by relaxivity
- Assay type: physicochemical
- REPORTED_CONDITIONS: acetate buffer with Zn2+ challenge, pH 5.2, pH 5.2, [Zn] 10 mM, acetate buffer 10 mM, 25° C., chelate approx. 0.5 mM; read-out: Dissociation Half life t1/2
Give the figure together with its unit, number first.

COMPOUND	MEASURED_RESULT
O=C1CN2CCNCCN(CC(=O)[O][Mn][O]1)Cc1cccc(n1)C2 [Compound disclosed in US5334371, reference compound]	9 min

From here, focus on the item given below.
Task item: Which half-life at 0.5 mM is reported for this compound? `CN1CCN2CC(=O)[O][Mn][O]C(=O)CN(CC1)Cc1cccc(n1)C2`
Reply: 30 min

Values were extracted from patent US9486544B2.
